Data origin: the RNAGym collection of RNA variant scans (doi:10.1021/acssynbio.7b00057)

B1: Pistol ribozyme (parent)
chain: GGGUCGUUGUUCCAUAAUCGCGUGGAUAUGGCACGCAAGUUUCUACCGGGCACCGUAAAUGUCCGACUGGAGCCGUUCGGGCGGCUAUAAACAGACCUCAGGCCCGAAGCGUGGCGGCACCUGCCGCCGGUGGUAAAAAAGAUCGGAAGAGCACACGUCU

# Variants of: B1
# ASSAY_NAME: aptazyme ON/OFF ratio, guanine; higher = stronger switching; co-transcriptional cleavage with and without guanine
aptazyme ON/OFF ratio listing for selected variants.

Here are 5 variants together with their reported answers.
| MUTATION_STRING | aptazyme ON/OFF ratio |
| --- | --- |
| U7G U8C U10G U11G | 1.31 |
| U7A G9U U10G | 1.75 |
| U7G U8C G9U U10C U11C C12G | 1.16 |
| U8G G9C U10C U11A C12U | 1.06 |
| U7A U10G U11G C12U | 1.28 |

Request: Dear colleague, I am looking for the recorded aptazyme ON/OFF ratio of the following variant: U7G U8A G9U U11A C12U C13G
Result: 1.07
